molecular target: human APJ receptor (Homo sapiens (Human), UniProt P35414); assay: [35S]GTPγS binding assay on membranes from CHO cells stably expressing human APJ receptor; assay type: biochemical; conditions: [35S]GTPγS SPA, read-out: Activity hAPJ SPA EC50 IP
Sequence (P35414 whole entry): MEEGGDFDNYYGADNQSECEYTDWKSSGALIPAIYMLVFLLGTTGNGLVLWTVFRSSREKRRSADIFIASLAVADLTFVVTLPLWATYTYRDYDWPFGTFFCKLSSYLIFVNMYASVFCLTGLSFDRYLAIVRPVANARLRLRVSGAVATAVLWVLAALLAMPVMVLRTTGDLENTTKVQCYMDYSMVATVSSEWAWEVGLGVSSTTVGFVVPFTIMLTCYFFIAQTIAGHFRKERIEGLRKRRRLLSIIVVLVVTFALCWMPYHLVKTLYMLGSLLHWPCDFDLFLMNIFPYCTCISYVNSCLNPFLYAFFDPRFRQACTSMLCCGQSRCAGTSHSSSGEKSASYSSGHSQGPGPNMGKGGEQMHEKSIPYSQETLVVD
Readout Type: log10 of EC50 (log10 of the value in nM)
Values below are the log10 of the recorded EC50, with nM as the unit.

Just so you know, measured log10 of EC50 for COc1ncnc(OC)c1-n1c(NS(=O)(=O)[C@@H](C)[C@H](OC)c2ncc(Cl)cn2)nnc1[C@H]1CC[C@@H](C(F)F)CC1 (single isomer, unassigned) [Example 145.0] came out at 0.68

Just so you know, measured log10 of EC50 for COc1cccc(OC)c1-n1c(NS(=O)(=O)[C@@H](C)[C@H](OC)c2ncc(Cl)cn2)nnc1[C@H]1C[C@@H](C#N)C1 (single isomer, unassigned) [Example 121.0] came out at 0.73

Just so you know, measured log10 of EC50 for COc1ncnc(OC)c1-n1c(NS(=O)(=O)[C@@H](C)[C@H](OC)c2ncc(Cl)cn2)nnc1[C@H]1C[C@](C)(F)C1 (single isomer, unassigned) came out at 1.48

Just so you know, measured log10 of EC50 for COc1cccc(OC)c1-n1c(NS(=O)(=O)[C@@H](C)[C@H](C)c2ncc(C)cn2)nnc1C1(c2ccccn2)CC1 came out at 3.62

Just so you know, measured log10 of EC50 for COc1cccc(OC)c1-n1c(NS(=O)(=O)[C@@H](C)[C@H](OC)c2ncc(Cl)cn2)nnc1[C@H]1CCC1(F)F (single isomer, unassigned) [Example 159.0] came out at 0.90

Just so you know, measured log10 of EC50 for COc1ncnc(OC)c1-n1c(NS(=O)(=O)[C@@H](C)[C@H](C)c2cnc(C)cn2)nnc1C1CCC1 came out at 1.62

Just so you know, measured log10 of EC50 for COc1cccc(OC)c1-n1c(NS(=O)(=O)[C@@H](C)[C@H](OC)c2ncc(Cl)cn2)nnc1C1CC2(CCC2)C1 came out at 0.00

Just so you know, measured log10 of EC50 for COCC1(n2c(NS(=O)(=O)[C@@H](C)[C@H](OC)c3ncc(Cl)cn3)nnc2C2CCC2)CC1 came out at 1.48

Just so you know, measured log10 of EC50 for COc1cccc(OC)c1-n1c(NS(=O)(=O)[C@@H](C)[C@H](OC)c2ncc(Cl)cn2)nnc1[C@H]1C[C@H](C)C1 came out at 0.04

Just so you know, measured log10 of EC50 for COc1ncnc(OC)c1-n1c(NS(=O)(=O)[C@@H](C)[C@H](OC)c2ncc(Cl)cn2)nnc1[C@H]1C[C@@H](Cl)C1 (single isomer, unassigned) [Example 164.0] came out at -0.27

Just so you know, measured log10 of EC50 for CO[C@H](c1ncc(Cl)cn1)[C@H](C)S(=O)(=O)Nc1nnc(C2CCC2)n1C(C)C came out at 2.52

Just so you know, measured log10 of EC50 for COc1cccc(OC)c1-n1c(NS(=O)(=O)[C@@H](C)[C@H](OC)c2ncc(Cl)cn2)nnc1[C@H]1C[C@H](OC)C1 (single isomer, unassigned) [Example 156.0] came out at 1.04

Just so you know, measured log10 of EC50 for COc1cccc(OC)c1-n1c(NS(=O)(=O)[C@@H](C)[C@H](C)c2ncc(C)cn2)nnc1[C@H]1C[C@H](Cl)C1 (single isomer, unassigned) [Example 194.0] came out at 0.40

Just so you know, measured log10 of EC50 for COc1ncnc(OC)c1-n1c(NS(=O)(=O)[C@@H](C)[C@H](OC)c2ncc(Cl)cn2)nnc1[C@@H]1CC[C@@H]1F (single isomer, unassigned) [Example 180.0] came out at 1.38
